# SYSTEM_TESTED: T1, human CTLA4 (human, UniProt P16410 36-161, limits assumed)
# T1 sequence (looked up): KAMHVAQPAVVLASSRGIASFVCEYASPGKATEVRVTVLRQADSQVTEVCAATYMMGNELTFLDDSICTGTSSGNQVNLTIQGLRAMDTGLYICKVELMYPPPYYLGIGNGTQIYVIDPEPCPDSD
# EXPERIMENTAL_DETAILS: selection of human antibodies; method not described

>  <BINDER>
F6 (antibody, V domains shown) VH: EVQLVESGGGFVKPGRSLRLSCTASGFTFGDYGMSWFRQAPGKGLEWVGFIRSKAYGGTTDYAASVKGRFTISRDDSKSFAYLQMNSLKTEDTAVYYCTRGHYSASIWGQGTLVTVSS VL: SYELMQPPSVSVAPGKTARITCGGNNIGSKSVHWYQQRPDQAPVLVIYSDNDRPSGIPERFSGSSSGHTATLTISRVEAGDEADYFCQVWDSNKNEWVFGGGTKLTVL

>  <binding result>
binds

$$$$
>  <BINDER>
G5 (antibody, V domains shown) VH: QVQLQQSGPGLVKPSQTLSLTCAISGDSVSSNSAAWNWIRQSPSRGLEWLGRTYYRSKWYNDYAVSVKSRITINPDTSKNQFSLQLNSVTPEDTAVYYCARDRWELPFDYWGQGTTVTVSS VL: QSVVTQPPSVSAASGQKVIISCSGSNSNIVNNYVSWYQQLPGAAPKVLIYANNKRPSGIPDRFSGSKSGTSAFLAITGLQTGDEADYYCGTWDGSLDVDVFGGGTKLTVL

>  <binding result>
binds

$$$$
>  <BINDER>
G3 (antibody, V domains shown) VH: QVQLVQSGAEVKKPGASVKVSCKASGYTFTSYYMHWVRQAPGQGLEWMGIINPSGGSTSYAQKFQGRVTMTRDTSTSTVYMELSGLRSEDTAVYYCARYEHDYDSSKATTGYFDYWGQGTLVTVSS VL: AIQLTQSPDSLAVSLGERATINCKSSQSILYRSNNKNYLAWYQQKPGQPPKLLIYWASTRESGVPDRFSGSGSGTDFTLTISSLQPEDFATYYCQQADRFPITFGQGTRLEIK

>  <binding result>
binds

$$$$
